molecular target: Focal adhesion kinase 1 (Homo sapiens, UniProt Q05397); assay: Inhibition of recombinant human FAK (411 to 686 residues) using EEEEYEEEEEEYY as substrate incubated for 40 mins in presence of [gamma-33ATP] by scintillation counting based radiometry assay
Sequence (Q05397 whole entry, the tested form may be a part): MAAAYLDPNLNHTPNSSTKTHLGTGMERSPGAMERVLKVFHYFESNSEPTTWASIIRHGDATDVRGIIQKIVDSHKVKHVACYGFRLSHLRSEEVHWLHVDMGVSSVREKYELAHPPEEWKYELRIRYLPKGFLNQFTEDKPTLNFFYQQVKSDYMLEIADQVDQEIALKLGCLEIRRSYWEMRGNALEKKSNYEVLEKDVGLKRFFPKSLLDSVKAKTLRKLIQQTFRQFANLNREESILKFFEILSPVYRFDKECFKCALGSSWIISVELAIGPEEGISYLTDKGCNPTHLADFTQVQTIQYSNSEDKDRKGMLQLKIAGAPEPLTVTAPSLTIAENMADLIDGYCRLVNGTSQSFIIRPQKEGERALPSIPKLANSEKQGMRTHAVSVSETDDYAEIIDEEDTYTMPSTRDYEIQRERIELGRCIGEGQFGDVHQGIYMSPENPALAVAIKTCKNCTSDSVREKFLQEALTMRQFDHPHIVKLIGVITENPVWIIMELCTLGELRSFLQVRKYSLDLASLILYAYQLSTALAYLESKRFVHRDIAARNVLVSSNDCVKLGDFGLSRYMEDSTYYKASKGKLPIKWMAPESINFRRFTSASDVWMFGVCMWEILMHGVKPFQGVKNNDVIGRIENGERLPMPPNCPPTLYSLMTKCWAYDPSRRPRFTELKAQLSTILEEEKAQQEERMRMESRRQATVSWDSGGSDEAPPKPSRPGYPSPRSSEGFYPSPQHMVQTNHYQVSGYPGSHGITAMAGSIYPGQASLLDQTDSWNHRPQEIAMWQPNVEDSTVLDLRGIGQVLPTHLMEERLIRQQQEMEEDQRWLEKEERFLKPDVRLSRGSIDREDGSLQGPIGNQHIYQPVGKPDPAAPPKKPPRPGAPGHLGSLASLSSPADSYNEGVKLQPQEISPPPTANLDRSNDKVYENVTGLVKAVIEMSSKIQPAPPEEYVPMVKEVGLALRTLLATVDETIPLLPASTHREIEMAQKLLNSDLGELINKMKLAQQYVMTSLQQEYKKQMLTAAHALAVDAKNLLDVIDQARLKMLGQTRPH
Experimental readout: pIC50
A value of pIC50 is the negative decimal logarithm of a concentration given in moles per litre.

Could you share what pIC50 was measured for "CCc1cc(Nc2nc(NCc3ccc(Cl)cc3OC)nc3cccc(OC)c23)n[nH]1" , tested on Focal adhesion kinase 1 (Homo sapiens, UniProt Q05397)?
6.66

---

biological target: G protein-coupled receptor kinase 6 (Homo sapiens, UniProt P43250); experiment: Inhibition of recombinant full-length human GRK6 using casein as substrate measured after 80 mins in presence of [gamma33P]ATP by radiometric scintillation counting method
Sequence (P43250 whole entry): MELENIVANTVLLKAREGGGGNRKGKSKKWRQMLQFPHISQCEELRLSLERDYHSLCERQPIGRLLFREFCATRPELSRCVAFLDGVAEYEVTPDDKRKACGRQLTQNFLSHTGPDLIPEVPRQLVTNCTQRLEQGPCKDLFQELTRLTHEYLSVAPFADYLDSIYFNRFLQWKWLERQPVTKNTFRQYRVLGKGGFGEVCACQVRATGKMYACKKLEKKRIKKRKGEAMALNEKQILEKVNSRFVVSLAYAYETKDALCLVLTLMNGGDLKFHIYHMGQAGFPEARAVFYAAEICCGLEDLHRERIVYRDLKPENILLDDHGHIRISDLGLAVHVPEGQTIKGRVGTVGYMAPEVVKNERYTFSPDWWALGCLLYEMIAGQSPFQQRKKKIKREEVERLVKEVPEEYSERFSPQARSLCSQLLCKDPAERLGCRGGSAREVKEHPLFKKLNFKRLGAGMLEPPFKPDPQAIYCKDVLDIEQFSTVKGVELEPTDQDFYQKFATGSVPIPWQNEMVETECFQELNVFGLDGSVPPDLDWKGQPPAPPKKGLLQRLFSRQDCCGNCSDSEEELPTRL
Entries and their measured pIC50 follow.
The scale used: pIC50 is minus the common logarithm of the concentration in molar units.

Below, 2 compounds whose answers are already recorded.
1. CCc1cc(Nc2nc(N[C@@H](C)c3ccc(F)cc3)nc3ccccc23)n[nH]1    6.92
2. CCc1cc(Nc2nc(NCc3ccc(Cl)cc3OC)nc3cccc(C)c23)n[nH]1    8.22

Sample "CCc1cc(Nc2nc(N[C@@H](C)c3ccc(F)cc3)nc3cc(Cl)ccc23)n[nH]1" — what was its pIC50?
6.36

Value lookup for pIC50; key = "CCc1cc(Nc2nc(N[C@@H](C)c3ccc(Cl)cn3)nc3cccc(OC)c23)n[nH]1"
8.46

# get_value(readout='pIC50', item= "CCc1cc(Nc2nc(N[C@@H](C)c3ccc(F)cn3)nc3cccc(OC)c23)n[nH]1" )
8.14

May I ask what pIC50 has been recorded for "CCc1cc(Nc2nc(NCc3ccc(Cl)cc3OC)nc3cccc(OC)c23)n[nH]1" ?
8.10

Query (compound): "CCc1cc(Nc2nc(N[C@@H](C)c3ccc(F)cc3)nc3cc(F)ccc23)n[nH]1" ; field requested: pIC50
7.00

Consider the compound shown here: "CCc1cc(Nc2nc(NCCc3ccc(F)cc3)nc3cc(F)ccc23)n[nH]1" What is its recorded pIC50?
6.74

So what's the measured pIC50 for this one? "CCc1cc(Nc2nc(NCCc3ccc(F)cc3)nc3ccc(OC)cc23)n[nH]1"
6.34

Entry under review: "CCc1cc(Nc2nc(N[C@@H](C)c3ccc(Cl)cc3)nc3ccccc23)n[nH]1" . Reported pIC50?
7.15

Any idea what pIC50 was measured for "CCc1cc(Nc2nc(N[C@@H](C)c3ccc(F)cc3)nc3cccc(F)c23)n[nH]1" ?
7.39

Field request: pIC50 | item: "CCc1cc(Nc2nc(N[C@@H](C)c3ccc(OC)cc3)nc3ccccc23)n[nH]1"
6.54

GET /values?readout=pIC50&item= "CCc1cc(Nc2nc(N[C@@H](C)C3CCCCC3)nc3ccccc23)n[nH]1"
6.02

Entry under review: "CCc1cc(Nc2nc(NCc3ccc(Cl)cc3)nc3cccc(C)c23)n[nH]1" . Reported pIC50?
7.57

# lookup: pIC50 of "CCc1cc(Nc2nc(N[C@@H](C)c3ccc(F)cn3)nc3cccc(C)c23)n[nH]1"
7.96

# query: pIC50 of entry "CCn1cnc(Nc2nc(N[C@@H](C)c3ccc(F)cn3)nc3cccc(F)c23)c1"
6.55

pIC50 for "CCc1cc(Nc2nc(NC3(c4ccc(Cl)cc4)CC3)nc3ccccc23)n[nH]1" ?
6.55

Using the record for "CCc1cc(Nc2nc(NCc3ccc(F)cc3)nc3ccccc23)n[nH]1" , report its pIC50.
6.60

Any idea what its pIC50 is? The compound is "CCc1cc(Nc2nc(NCc3ccc(F)cn3)nc3cccc(OC)c23)n[nH]1"
7.74
